Biological target: T1, DcR3 FL-Fc (R&D Systems, Inc.) (human, UniProt O95407 30-300)
T1 construct: Bought product made in insect cells; also called DcR3-Fc (R&D Systems, Inc.); DcR3 FL-Fc (IgG1)
T1 sequence: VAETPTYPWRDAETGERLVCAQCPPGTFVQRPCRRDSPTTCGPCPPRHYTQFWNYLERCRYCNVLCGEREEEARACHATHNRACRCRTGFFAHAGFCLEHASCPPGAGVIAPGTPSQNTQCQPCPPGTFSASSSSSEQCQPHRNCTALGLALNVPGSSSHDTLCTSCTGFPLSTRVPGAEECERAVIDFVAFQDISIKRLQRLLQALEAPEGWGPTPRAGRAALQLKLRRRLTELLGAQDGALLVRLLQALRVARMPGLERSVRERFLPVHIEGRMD
Experiment: SPR, binder captured
Each record here notes measured pKd.
Just the number, please; pKd means minus log10 of the concentration in mol/L.

binder	reported_property	observed_result
soluble recombinant of cynomolgus monkey FasL (His6, Pro133-Leu280) (ligand, also called His6-cynoFasL) PSPPPEKKEQRKVAHLTGKPNSRSMPLEWEDTYGIVLLSGVKYKKGGLVINETGLYFVYSKVYFRGQSCTNLPLSHKVYMRNSKYPQDLVMMEGKMMSYCTTGQMWAHSSYLGAVFNLTSADHLYVNVSELSLVNFEESQTFFGLYKL	pKd	8.96
soluble recombinant of mouse TL1A (His6, GS linker, Ile94-Leu270) (ligand) HHHHHHGGGSGGGSGGGSITEERSEPSPQQVYSPPRGKPRAHLTIKKQTPAPHLKNQLSALHWEHDLGMAFTKNGMKYINKSLVIPESGDYFIYSQITFRGTTSVCGDISRGRRPNKPDSITMVITKVADSYPEPARLLTGSKSVCEISNNWFQSLYLGATFSLEEGDRLMVNVSDISLVDYTKEDKTFFGAFLL	pKd	9.24

Now look at this entry.
*Q* # input binder: soluble recombinant of human LIGHT (His10, GS linker, Asp74-Val240) (ligand) HHHHHHHHHHGGGSGGGSGGGSIEGRDGPAGSWEQLIQERRSHEVNPAAHLTGANSSLTGSGGPLLWETQLGLAFLRGLSYHDGALVVTKAGYYYIYSKVQLGGVGCPLGLASTITHGLYKRTPRYPEELELLVSQQSPCGRATSSSRVWWDSSFLGGVVHLEAGEKVVVRVLDERLVRLRDGTRSYFGAFMV ; wanted: its pKd
*A* 8.96

meta.source: patent US20220340642A1
